# target: human GLP-1 receptor (human, UniProt P43220 24-463)
# method.description: cell-based or functional assay
Positions of bridges follow the written chain, without caps; N, C: chain ends. Non-standard residues stand in square brackets, D forms with d. No end group written: not given here. *: point of attachment. Acetyl(2-(4-imidazolyl)) = O=C(Cc1c[nH]cn1)*; Aib = CC(C)(N)C(=O)O
Listed here are binders together with their documented In vitro Activity Compared to Native Peptide (%) vs. GLP-1.
Lab book: enter the figure in %, no units written.

See these solved cases before continuing.
Y[Aib]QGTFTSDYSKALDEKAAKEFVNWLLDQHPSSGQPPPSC (bridge 16-20) [triple agonist of SEQ ID NO: 101]: 23.2
[Acetyl(2-(4-imidazolyl))][Aib]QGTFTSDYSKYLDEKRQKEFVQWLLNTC (bridge 16-20) [triple agonist of SEQ ID NO: 81]: 7.8

Look up In vitro Activity Compared to Native Peptide (%) vs. GLP-1: H[Aib]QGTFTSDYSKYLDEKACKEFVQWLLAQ (bridge 16-20) [triple agonist of SEQ ID NO: 31]
135
